ASSAY COMMENT: antimalarial activity against Dd2 strain (AID 2302)
SETUP CONDITIONS: P. falciparum Dd2 in RBCs, LDH growth readout, 72 h; at 2 µM
Active and inactive are the calls of the source.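 The calls were made as follows: active = growth inhibition above 50% at the single 2 µM test dose, taken to imply half-maximal potency below 2 µM; inactive = the rest.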
Pick from active, inactive when you respond.

Worked set:
COMPOUND: NC(N)=Nc1ccc(OCCCCCOc2ccc(N=C(N)N)cc2Br)c(Br)c1
LABEL VALUE: active
--
COMPOUND: CCCCCN1CCN(Cc2cccc(NC(=O)c3ccc(Cl)c(Cl)c3)c2)CC1
LABEL VALUE: inactive
--
COMPOUND: CCCNC(=O)Nc1cc2cc(-c3cccc(CN4CCCCC4)c3)ccc2n2c(C)nnc12
LABEL VALUE: active
--
COMPOUND: COc1ccc2nccc(N(C)CC3(O)CCC(NCc4ccc5c(n4)NC(=O)CS5)CC3)c2n1 (stereo not given)
LABEL VALUE: inactive

# input Could you kindly confirm the outcome this assay logged for CC(NC(C)c1cccc(Cl)c1)C(=O)Nc1cc(C(F)(F)F)ccc1N1CCOCC1 (stereo not given) ?
# output inactive
